target: AgSla1-D1-D2; assay: SPOT peptide array binding signal intensity (averaged, normalized) (arbitrary units (background-subtracted, floor 0; scale differs between SH3 domains)); higher = stronger binding of the SH3 domain to the peptide
RECORDED ENDPOINT: SPOT peptide array binding signal intensity
Respond using a number only.

Requested read-out: SPOT peptide array binding signal intensity. Entry: SPLGAPPPPPHKDHL 6

// next record ILARAILTIPRVLDK 58

// next record RRRRRPHRIERPLSN 354

// next record RSRRSSFAYPQQVAI 63.5

// next record ITHRLRISIPGITGR 116

// next record HGKRRAPLLLAKLDV 94.5

// next record KIRRSSLMIPNPQQF 186

// next record KRRAPPPVPKKPSSR 107

// next record VQKRKLPLPGSIASA 6.5

// next record LASNSPPVYPKRIRH 2
